System: velvetleaf (Abutilon theophrasti)
Experiment: Test A pre/postemergence
Type: in vivo
Details: Preemergence, 125 g ai/ha; 0 to 100 scale where 0 is no effect and 100 is complete control; approximately ten days
As shown below, each of these molecules has a reported Plant response rating, Velvetleaf value.
PROPERTY LABEL: Plant response rating, Velvetleaf

# MOLECULE, RECORDED MEASUREMENT
records = [
    ("CCOC(=O)c1nc(-c2ccc(F)cc2)nc(N)c1Br", 0),
    ("Nc1nc(C2CC2)nc(C(=O)OCC2CO2)c1Cl (centres unmarked)", 90),
    ("CS(=O)(=O)NC(=O)c1nc(C2CC2)nc(N)c1Cl", 0),
    ("COC(=O)c1nc(-c2ccc(Cl)cc2)nc(N)c1Br", 15),
    ("NC(=O)c1nc(-c2ccc(Br)cc2)nc(N)c1Br", 0),
]

###

Tested on: pigweed (Amaranthus retroflexus)
Assay: Test C pre/postemergence
Type: in vivo
Conditions: Preemergence, 125 g ai/ha; scale 0 to 100
Simple rule here: Plant response rating, Pigweed less than 80 is t, otherwise f.

# COMPOUND, TARGET ENTITY, ASSIGNED CLASS
measured = [
    ("CCCCOC(=O)c1nc(C2CC2)nc(N)c1Br [Compound 16]", "pigweed (Amaranthus retroflexus)", "f"),
    ("CCOC(=O)Cc1nc(C2CC2)nc(N)c1Br [Compound 12]", "pigweed (Amaranthus retroflexus)", "t"),
    ("CCCOC(=O)c1nc(C2CC2)nc(N)c1Br [Compound 15]", "pigweed (Amaranthus retroflexus)", "f"),
    ("CCOC(=O)C(OC(C)=O)c1nc(C2CC2)nc(N)c1Br (stereo not drawn) [Compound 47]", "pigweed (Amaranthus retroflexus)", "f"),
    ("CCOC(=O)C(Cl)c1nc(C2CC2)nc(N)c1Br (stereo not drawn) [Compound 31]", "pigweed (Amaranthus retroflexus)", "t"),
    ("COC(=O)Cc1nc(C2CC2)nc(N)c1Br [Compound 13]", "pigweed (Amaranthus retroflexus)", "f"),
    ("CCOC(=O)Cc1nc(C2CC2)nc(N=CN(C)C)c1Br [Compound 33]", "pigweed (Amaranthus retroflexus)", "f"),
    ("COC(=O)CNc1nc(C2CC2)nc(C(=O)OC)c1Br [Compound 10]", "pigweed (Amaranthus retroflexus)", "t"),
    ("CCOC(=O)c1nc(C2CC2)nc(N=CN(C)C)c1Br [Compound 40]", "pigweed (Amaranthus retroflexus)", "f"),
]

###

Tested on: corn (Zea mays)
Test: Test C pre/postemergence
Assay type: in vivo
Conditions: Preemergence, 125 g ai/ha; scale 0 to 100
As shown below, each of these compounds has a reported Plant response rating, Corn value.

# COMPOUND, Plant response rating, Corn
data = [
    ("CC(C)COC(=O)c1nc(C2CC2)nc(N)c1Br", 35),
    ("CCCCOC(=O)c1nc(C2CC2)nc(N)c1Br", 20),
    ("CCOC(=O)C(OC(C)=O)c1nc(C2CC2)nc(N)c1Br (stereo not shown)", 0),
    ("Nc1nc(-c2ccc(Cl)cc2)nc(C(=O)[O-])c1Cl.[Na+]", 25),
    ("COCc1nc(C2CC2)nc(N)c1Br", 0),
    ("Nc1nc(C2CC2)nc(C(=O)O)c1Cl", 70),
    ("CCCOC(=O)c1nc(C2CC2)nc(N)c1Cl", 65),
]

###

Test system: cocklebur (Xanthium strumarium)
Experiment: Test B pre/postemergence
Type: in vivo
Details: Xanthium strumarium, post-emergence, Postemergence, 125 g ai/ha; scale 0 to 100 (0 no effect, 100 complete control); read-out: Cocklebur plant response rating

# STRUCTURE NOTATION, UNIT SYMBOL, pest or weed control at 125 g/ha
records = [
    ("COC(=O)c1nc(C2CC2)nc(N)c1Cl", "%", 100),
    ("CCOC(=O)c1nc(-c2ccc(Br)cc2)nc(N)c1Cl", "%", 100),
    ("COC(=O)c1nc(C(C)C)nc(N)c1Br", "%", 70),
    ("COC(=O)c1nc(C2CC2)nc(NO)c1Br", "%", 30),
    ("COC(=O)c1nc(C2CC2)nc(N)c1I", "%", 90),
    ("CCOC(=O)c1nc(C(C)(C)C)nc(N)c1Br", "%", 20),
    ("Nc1nc(C2CC2)nc(C(=O)O)c1Br", "%", 100),
    ("Nc1nc(-c2ccc(Br)cc2)nc(C(=O)O)c1Cl", "%", 90),
]

###

As shown below, each of these compounds has a reported Wheat plant response rating value.
Test system: wheat (Triticum aestivum)
Assay: Test B pre/postemergence
Assay type: in vivo
Conditions: Postemergence, 125 g ai/ha; scale 0 to 100 (0 no effect, 100 complete control)

# STRUCTURE NOTATION, TARGET ENTITY, Wheat plant response rating
data = [
    ("CCOC(=O)Cc1nc(C2CC2)nc(N)c1Br", "wheat (Triticum aestivum)", 0),
    ("COC(=O)c1nc(-c2ccc(I)cc2)nc(N)c1Br", "wheat (Triticum aestivum)", 20),
    ("CCOC(=O)c1nc(C2CC2)nc(NOCC(=O)O)c1Br", "wheat (Triticum aestivum)", 0),
    ("CCOC(=O)c1nc(-c2ccc(Cl)cc2)nc(N)c1Br", "wheat (Triticum aestivum)", 0),
]

###

Test system: morningglory (Ipomoea coccinea)
Assay: Test C pre/postemergence
Format: in vivo
Settings: Preemergence, 250 g ai/ha; scale 0 to 100
As shown below, each of these compounds has a reported Plant response rating, Morningglory value.

# COMPOUND, Plant response rating, Morningglory
rows = [
    ("COC(=O)CNc1nc(C2CC2)nc(C(=O)OC)c1Br", 0),
    ("CN(C)N=Cc1nc(C2CC2)nc(N)c1Br", 95),
    ("CCOC(=O)c1nc(C2CC2)nc(N=CN(C)C)c1Br", 90),
    ("COC(=O)c1nc(C2CC2C)nc(N)c1Br (centres unmarked)", 100),
    ("Nc1nc(C2CC2)nc(C=NO)c1Br", 95),
]

###

As shown below, each of these compounds has a reported pest or weed control at 125 g/ha value.
System: barnyardgrass (Echinochloa crus-galli)
Assay: Test B pre/postemergence
Type: in vivo
Settings: Echinochloa crus-galli, pre-emergence, Preemergence, 125 g ai/ha; scale 0 to 100 (0 no effect, 100 complete control); read-out: Plant response rating, Barnyardgrass
PROPERTY LABEL: pest or weed control at 125 g/ha (%)

# COMPOUND, TARGET ENTITY, PROPERTY LABEL, UNIT SYMBOL, RECORDED MEASUREMENT
measured = [
    ("CCOC(=O)c1nc(C(C)(C)C)nc(N)c1Br [Compound 36]", "barnyardgrass (Echinochloa crus-galli)", "pest or weed control at 125 g/ha", "%", 0),
    ("COC(=O)c1nc(C2CC2)nc(N)c1Br [Compound 2]", "barnyardgrass (Echinochloa crus-galli)", "pest or weed control at 125 g/ha", "%", 70),
    ("COC(=O)c1nc(-c2ccccc2)nc(N)c1Br [Compound 23]", "barnyardgrass (Echinochloa crus-galli)", "pest or weed control at 125 g/ha", "%", 0),
    ("Nc1nc(C2CC2)nc(C(=O)OCc2ccccc2)c1Br [Compound 22]", "barnyardgrass (Echinochloa crus-galli)", "pest or weed control at 125 g/ha", "%", 0),
    ("COC(=O)c1nc(C2CC2)nc(NO)c1Br [Compound 35]", "barnyardgrass (Echinochloa crus-galli)", "pest or weed control at 125 g/ha", "%", 10),
    ("Nc1nc(C2CC2)nc(C(=O)OCc2ccccc2)c1Cl [Compound 78]", "barnyardgrass (Echinochloa crus-galli)", "pest or weed control at 125 g/ha", "%", 70),
    ("CCOC(=O)c1nc(-c2ccccc2)nc(N)c1Br [Compound 18]", "barnyardgrass (Echinochloa crus-galli)", "pest or weed control at 125 g/ha", "%", 0),
]

###

As shown below, each of these molecules has a reported Plant response rating, Barnyardgrass value.
System: barnyardgrass (Echinochloa crus-galli)
Assay: Test B pre/postemergence
Type: in vivo
Conditions: Preemergence, 62 g ai/ha; scale 0 to 100, 0 no effect, 100 complete control
PROPERTY LABEL: Plant response rating, Barnyardgrass

# MOLECULE, RECORDED MEASUREMENT
data = [
    ("CCOC(OCC)c1nc(C2CC2)nc(N)c1Br [Compound 45]", 0),
    ("COC(=O)c1nc(-c2ccc(Br)cc2)nc(N)c1Br [Compound 129]", 10),
    ("Nc1nc(-c2ccc(Cl)cc2)nc(C(=O)[O-])c1Cl.[Na+] [Compound 117]", 10),
    ("CCCOC(=O)c1nc(C2CC2)nc(N)c1Cl [Compound 75]", 60),
]
